Where do these numbers come from? They come from ChEMBL document CHEMBL3885861.

# Species: Rattus norvegicus
# run-description: Open TG-GATES - Regimen: Single
# Type: toxicity, organism-based, Sprague-Dawley
# Design: regimen Single, gender Male, age 6 weeks
# assay-context: in vivo, po, 0 mg/kg, 9 h, tissue Blood, route gavage, dose level Control
measurement-type: MCH (pg)
Give just the number in pg; leave the unit off.

Below: 5 molecules and their reported MCH.
molecule	reported-measurement
CCCc1cc(=O)[nH]c(=S)[nH]1	22
CN1C(=O)CCS(=O)(=O)C1c1ccc(Cl)cc1 (stereo not drawn)	21.2
Nc1c2c(nc3ccccc13)CCCC2	21.1
CNC(=C[N+](=O)[O-])NCCSCc1ccc(CN(C)C)o1	21.7
O=C(OC[C@H]1O[C@@H](OC(=O)c2cc(O)c(O)c(OC(=O)c3cc(O)c(O)c(O)c3)c2)[C@H](OC(=O)c2cc(O)c(O)c(OC(=O)c3cc(O)c(O)c(O)c3)c2)[C@@H](OC(=O)c2cc(O)c(O)c(OC(=O)c3cc(O)c(O)c(O)c3)c2)[C@@H]1OC(=O)c1cc(O)c(O)c(OC(=O)c2cc(O)c(O)c(O)c2)c1)c1cc(O)c(O)c(OC(=O)c2cc(O)c(O)c(O)c2)c1	22.2

Recorded MCH of COC(=O)C1=C(C)NC(C)=C(C(=O)OC)C1c1ccccc1[N+](=O)[O-] , please.
21

====

# Species: Rattus norvegicus
# run-description: Open TG-GATES - Regimen: Daily Repeat
# Type: toxicity, organism-based, Sprague-Dawley
# Design: regimen Daily Repeat, gender Male, age 6 weeks
# assay-context: in vivo, po, 1000 mg/kg, 72 h, tissue Plasma, route gavage, dose level High, time 3 day
measurement-type: GLC (mg/dL)
Give the value in mg/dL but do not write mg/dL after it.

The cases that follow already have their GLC on record.
smiles-text	units-of-measure	reported-measurement
CNC(=C[N+](=O)[O-])NCCSCc1ccc(CN(C)C)o1	mg/dL	198.4
CCOc1ccc(NC(C)=O)cc1	mg/dL	154.6
Cc1nnc2n1-c1ccc(Cl)cc1C(c1ccccc1Cl)=NC2	mg/dL	167
COC(=O)C1=C(C)NC(C)=C(C(=O)OC)C1c1ccccc1[N+](=O)[O-]	mg/dL	153
CN/C(=N/CCSCc1nc[nH]c1C)NC#N	mg/dL	201.6

Turning now to a further record.
State the recorded GLC for this entry: O=C(OC[C@H]1O[C@@H](OC(=O)c2cc(O)c(O)c(OC(=O)c3cc(O)c(O)c(O)c3)c2)[C@H](OC(=O)c2cc(O)c(O)c(OC(=O)c3cc(O)c(O)c(O)c3)c2)[C@@H](OC(=O)c2cc(O)c(O)c(OC(=O)c3cc(O)c(O)c(O)c3)c2)[C@@H]1OC(=O)c1cc(O)c(O)c(OC(=O)c2cc(O)c(O)c(O)c2)c1)c1cc(O)c(O)c(OC(=O)c2cc(O)c(O)c(O)c2)c1
204.4

====

# Organism: Rattus norvegicus
# run-description: Open TG-GATES - Regimen: Daily Repeat
# Assay type: toxicity, organism-based, Sprague-Dawley
# Set-up: regimen Daily Repeat, gender Male, age 6 weeks
# assay-context: in vivo, po, 1000 mg/kg, […], tissue Plasma, route gavage, dose level High, time 14 day
Simple rule here: ALT less than 40 IU/L is label 1, otherwise label 0.

smiles-text	group
Cc1nnc2n1-c1ccc(Cl)cc1C(c1ccccc1Cl)=NC2	label 0
O=C(OC[C@H]1O[C@@H](OC(=O)c2cc(O)c(O)c(OC(=O)c3cc(O)c(O)c(O)c3)c2)[C@H](OC(=O)c2cc(O)c(O)c(OC(=O)c3cc(O)c(O)c(O)c3)c2)[C@@H](OC(=O)c2cc(O)c(O)c(OC(=O)c3cc(O)c(O)c(O)c3)c2)[C@@H]1OC(=O)c1cc(O)c(O)c(OC(=O)c2cc(O)c(O)c(O)c2)c1)c1cc(O)c(O)c(OC(=O)c2cc(O)c(O)c(O)c2)c1	label 1
CNC(=C[N+](=O)[O-])NCCSCc1ccc(CN(C)C)o1	label 1
CCOc1ccc(NC(C)=O)cc1	label 0
CN/C(=N/CCSCc1nc[nH]c1C)NC#N	label 1

Now look at this entry.
Just wondering, is ALT of COC(=O)C1=C(C)NC(C)=C(C(=O)OC)C1c1ccccc1[N+](=O)[O-] below 40 IU/L?
label 0

====

Below, each of the compounds is paired with its reported TERMINAL_BW value.
# Species: Rattus norvegicus
# run-description: Open TG-GATES - Regimen: Daily Repeat
# Type: toxicity, organism-based, Sprague-Dawley
# Parameters: regimen Daily Repeat, gender Male, age 6 weeks
# assay-context: in vivo, po, 300 mg/kg, 72 h, route gavage, dose level Middle, time 3 day
Number plus unit, in that order.

Consider the following illustrative entries.
compound	TERMINAL_BW
O=C(OC[C@H]1O[C@@H](OC(=O)c2cc(O)c(O)c(OC(=O)c3cc(O)c(O)c(O)c3)c2)[C@H](OC(=O)c2cc(O)c(O)c(OC(=O)c3cc(O)c(O)c(O)c3)c2)[C@@H](OC(=O)c2cc(O)c(O)c(OC(=O)c3cc(O)c(O)c(O)c3)c2)[C@@H]1OC(=O)c1cc(O)c(O)c(OC(=O)c2cc(O)c(O)c(O)c2)c1)c1cc(O)c(O)c(OC(=O)c2cc(O)c(O)c(O)c2)c1 [TANNIC ACID]	215.8 g
COC(=O)C1=C(C)NC(C)=C(C(=O)OC)C1c1ccccc1[N+](=O)[O-] [NIFEDIPINE]	223.2 g

Then this compound:
Give its TERMINAL_BW value. Item: Cc1nnc2n1-c1ccc(Cl)cc1C(c1ccccc1Cl)=NC2 [TRIAZOLAM]
220.9 g

====

Parameter: Ht. Scope: all listed entries.
# Species on record: Rattus norvegicus
# run-description: Open TG-GATES - Regimen: Single
# Format: toxicity, organism-based, Sprague-Dawley
# Parameters: regimen Single, gender Male, age 6 weeks
# assay-context: in vivo, po, 300 mg/kg, 9 h, tissue Blood, route gavage, dose level Middle
Report the figure in % without appending any unit label.

Below: 4 compounds and their reported Ht.
smiles-text	measurement-type	reported-measurement
O=C(OC[C@H]1O[C@@H](OC(=O)c2cc(O)c(O)c(OC(=O)c3cc(O)c(O)c(O)c3)c2)[C@H](OC(=O)c2cc(O)c(O)c(OC(=O)c3cc(O)c(O)c(O)c3)c2)[C@@H](OC(=O)c2cc(O)c(O)c(OC(=O)c3cc(O)c(O)c(O)c3)c2)[C@@H]1OC(=O)c1cc(O)c(O)c(OC(=O)c2cc(O)c(O)c(O)c2)c1)c1cc(O)c(O)c(OC(=O)c2cc(O)c(O)c(O)c2)c1	Ht	39
CN/C(=N/CCSCc1nc[nH]c1C)NC#N	Ht	36.5
CNC(=C[N+](=O)[O-])NCCSCc1ccc(CN(C)C)o1	Ht	38.2
COC(=O)C1=C(C)NC(C)=C(C(=O)OC)C1c1ccccc1[N+](=O)[O-]	Ht	39.7

Consider the record given below.
Item under review: Cc1nnc2n1-c1ccc(Cl)cc1C(c1ccccc1Cl)=NC2 . Reported Ht?
41.2

====

// reported Hb for each item listed
# Species on record: Rattus norvegicus
# run-description: Open TG-GATES - Regimen: Daily Repeat
# Type: toxicity, organism-based, Sprague-Dawley
# Parameters: regimen Daily Repeat, gender Male, age 6 weeks
# assay-context: in vivo, po, 0 mg/kg, […], tissue Blood, route gavage, dose level Control, time 14 day
Number in g/dL, nothing else.

Answered cases to consult:
>>> print(df.to_string())
                                   compound  measurement_type  units_of_measure  reported_measurement
0  CN(C)CCC(c1ccc(Cl)cc1)c1ccccn1 (configuration not stated)                Hb              g/dL                  14.8
1   CNC(=C[N+](=O)[O-])NCCSCc1ccc(CN(C)C)o1                Hb              g/dL                  14.8
2                      CCOc1ccc(NC(C)=O)cc1                Hb              g/dL                  14.3
3                      CC(C)NNC(=O)c1ccncc1                Hb              g/dL                  13.6
4  NC1=NC(=O)C(c2ccccc2)O1 (configuration not stated)                Hb              g/dL                  13.9
5                   Nc1c2c(nc3ccccc13)CCCC2                Hb              g/dL                  15.4

Turning now to a further compound:
// Hb lookup, key: Cc1nnc2n1-c1ccc(Cl)cc1C(c1ccccc1Cl)=NC2
14.4
